Subject of test: acetylcholinesterase (Mus musculus, UniProt P21836)
Construct: A mouse brain homogenate was used as an acetylcholinesterase source; from tissue; host or cells: mouse brain homogenate
Sequence (P21836 32-614): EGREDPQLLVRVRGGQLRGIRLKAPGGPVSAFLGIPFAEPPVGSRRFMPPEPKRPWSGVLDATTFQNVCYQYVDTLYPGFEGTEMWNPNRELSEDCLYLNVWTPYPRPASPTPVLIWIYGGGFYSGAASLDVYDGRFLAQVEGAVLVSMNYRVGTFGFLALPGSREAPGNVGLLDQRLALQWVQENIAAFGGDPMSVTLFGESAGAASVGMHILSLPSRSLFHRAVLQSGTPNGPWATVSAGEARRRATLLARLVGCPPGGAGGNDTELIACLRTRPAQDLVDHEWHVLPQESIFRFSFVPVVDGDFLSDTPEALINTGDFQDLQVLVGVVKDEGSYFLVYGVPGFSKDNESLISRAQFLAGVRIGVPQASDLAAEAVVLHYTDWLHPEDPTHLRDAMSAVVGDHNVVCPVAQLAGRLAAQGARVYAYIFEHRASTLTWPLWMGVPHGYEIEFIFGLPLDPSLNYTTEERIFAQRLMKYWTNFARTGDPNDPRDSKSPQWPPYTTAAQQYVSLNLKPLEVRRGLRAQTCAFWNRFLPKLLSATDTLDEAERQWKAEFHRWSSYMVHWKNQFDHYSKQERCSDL
Measurement description: biochemical
Assay type: biochemical
Details: read-out: Inhibitory activity on AChE IC50
pIC50: −log10 of the molar value. Structures can show the parent of a compound that is named as a salt.
Lab note: compare pIC50 against 7. Equal or greater, write true (1). Smaller, write false (0).

[[record]]
compound = "COc1ccc2c(c1)C(=O)C(=CC1CCN(Cc3ccccc3)CC1)C2 [Example 206]"
group_label = "false (0)"

[[record]]
compound = "COc1cccc2c1CC(CC1CCN(Cc3ccccc3)CC1)C2=O (centres unmarked) [Example 189]"
group_label = "true (1)"

[[record]]
compound = "COc1cc2c(cc1OC)C(=O)C(CCCCC1CCN(Cc3ccccc3)CC1)C2 (centres unmarked) [Example 204]"
group_label = "true (1)"

[[record]]
compound = "COc1cc2c(cc1OC)C(=O)C(CC1CCN(Cc3cccc(F)c3)CC1)C2 (centres unmarked) [Example 180, hydrochloride]"
group_label = "true (1)"

[[record]]
compound = "COc1cc2c(cc1OC)C(=O)C(CCCCCC1CCN(Cc3ccccc3)CC1)C2 (centres unmarked) [Example 205]"
group_label = "true (1)"

[[record]]
compound = "COc1cc2c(cc1OC)C(=O)C(CN1CCC(Cc3ccccc3)CC1)C2 (centres unmarked) [Example 225]"
group_label = "false (0)"


* * *

Subject of test: acetylcholinesterase (Mus musculus)
Construct: A mouse brain homogenate was used as an acetylcholinesterase source; from tissue; host or cells: mouse brain homogenate
Measurement description: biochemical
Format: biochemical
Details: read-out: AChE inhibitory activity IC50
pIC50: −log10 of the molar value. Structures can show the parent of a compound that is named as a salt.
Metric: pIC50

[[record]]
compound = "O=C(c1ccncc1)N(CCC1CCN(Cc2ccccc2)CC1)c1ccccc1 [Example 19, dihydrochloride]"
metric = "pIC50"
reading = 7.19

[[record]]
compound = "O=C(NCCC1CCN(Cc2ccccc2)CC1)c1cnc2ccccc2n1 [Example 15]"
metric = "pIC50"
reading = 7.03

[[record]]
compound = "O=C1c2ccccc2CCN1CCC1CCN(Cc2ccccc2)CC1 [Example 54]"
metric = "pIC50"
reading = 6.00

[[record]]
compound = "COc1cc2c(c(OC)c1)C(=O)C(CC1CCN(Cc3ccccc3)CC1)C2 (stereo not shown) [Example 31]"
metric = "pIC50"
reading = 7.60


* * *

Subject of test: acetylcholinesterase (Mus musculus)
Construct: A mouse brain homogenate was used as an acetylcholinesterase source; from tissue; host or cells: mouse brain homogenate
Measurement description: biochemical
Type: biochemical
Where a name gives a salt, the structure may show the parent alone.
Metric: IC50 (nM)

[[record]]
compound = "COc1cc2c(cc1OC)C(=O)C(CC1CCN(Cc3cc(OC)c(OC)c(OC)c3)CC1)C2 (centres unmarked)"
subject_of_test = "acetylcholinesterase (Mus musculus)"
reading = 4900

[[record]]
compound = "COc1cc2c(c(OC)c1OC)C(=O)C(=CC1CCN(Cc3ccccc3)CC1)C2"
subject_of_test = "acetylcholinesterase (Mus musculus)"
reading = 60

[[record]]
compound = "CC(=O)N(CCC1CCN(Cc2ccccc2)CC1)c1ccncc1"
subject_of_test = "acetylcholinesterase (Mus musculus)"
reading = 110

[[record]]
compound = "O=C1c2cc3c(cc2CC1CC1CCN(Cc2ccccc2)CC1)OCO3 (centres unmarked)"
subject_of_test = "acetylcholinesterase (Mus musculus)"
reading = 23

[[record]]
compound = "CCOC(=O)N1CCC(CC2=Cc3cc(OC)c(OC)cc3C2=O)CC1"
subject_of_test = "acetylcholinesterase (Mus musculus)"
reading = 5300

[[record]]
compound = "COc1cc(OC)cc(N(CCC2CCN(Cc3ccccc3)CC2)C(=O)C=Cc2ccc(F)cc2)c1"
subject_of_test = "acetylcholinesterase (Mus musculus)"
reading = 680

[[record]]
compound = "COc1ccc(CN2CCC(CC3Cc4cc(OC)c(OC)cc4C3=O)CC2)cc1 (centres unmarked)"
subject_of_test = "acetylcholinesterase (Mus musculus)"
reading = 3600

[[record]]
compound = "COc1cc2c(cc1OC)C(=O)C(CCCC1CCN(Cc3ccccc3)CC1)C2 (centres unmarked) [Example 187, hydrochloride]"
subject_of_test = "acetylcholinesterase (Mus musculus)"
reading = 4400


* * *

Subject of test: acetylcholinesterase (Mus musculus, UniProt P21836)
Construct: A mouse brain homogenate was used as an acetylcholinesterase source; from tissue; host or cells: mouse brain homogenate
Measurement description: biochemical
Assay type: biochemical
pIC50: −log10 of the molar value. Structures can show the parent of a compound that is named as a salt.
Metric: pIC50

[[record]]
compound = "COc1cc2c(cc1OC)C(=O)C(C(C1CCN(Cc3ccccc3)CC1)C1Cc3cc(OC)c(OC)cc3C1=O)C2 (centres unmarked) [Example 249]"
metric = "pIC50"
reading = 6.21

[[record]]
compound = "COc1cc2c(cc1OC)C(=O)C(NC1CCN(Cc3ccccc3)CC1)C2 (centres unmarked) [Example 248]"
metric = "pIC50"
reading = 5.85

[[record]]
compound = "O=C1CCCc2ccccc2N1CCC1CCN(Cc2ccccc2)CC1 [Example 10, hydrochloride]"
metric = "pIC50"
reading = 8.05

[[record]]
compound = "O=C1c2cccnc2CN1CCC1CCN(Cc2ccccc2)CC1 [Example 5, dihydrochloride]"
metric = "pIC50"
reading = 7.00

[[record]]
compound = "O=C1C(=CC2CCN(Cc3ccccc3)CC2)Cc2cc3c(cc21)OCO3 [Example 217]"
metric = "pIC50"
reading = 6.85

[[record]]
compound = "Cc1cccc2c1CC(=CC1CCN(Cc3ccccc3)CC1)C2=O [Example 213]"
metric = "pIC50"
reading = 7.30

[[record]]
compound = "COc1cc2c(cc1OC)C(=O)C(CC1CCN(Cc3ccc4ccccc4c3)CC1)C2 (centres unmarked) [Example 242]"
metric = "pIC50"
reading = 5.54

[[record]]
compound = "COc1cc2c(cc1OC)C(=O)N(C)C(CCC1CCN(Cc3ccccc3)CC1)C2 (centres unmarked) [Example 67]"
metric = "pIC50"
reading = 7.00

